system: Escherichia coli
Entries are grouped by MIC into these classes: low class: < 0.5 µM; middle class: ≥ 0.5 µM and < 1 µM; high class: ≥ 1 µM

>  <MOLECULE>
CCn1cc(C(=O)O)c(=O)c2cc(F)c(N3CCN(CC(=NO)c4ccc(OC)cc4)CC3)c(F)c21 [Exp. 6]

>  <CLASS>
low class

$$$$
>  <MOLECULE>
CCn1cc(C(=O)O)c(=O)c2cc(F)c(N3CCN(CC(=O)c4ccccc4)CC3)c(F)c21 [Exp. 4]

>  <CLASS>
low class

$$$$
>  <MOLECULE>
CCn1cc(C(=O)O)c(=O)c2cc(F)c(N3CCN(CC(=NOC)c4ccc(OC)cc4)CC3)cc21 [Exp. 7]

>  <CLASS>
high class

$$$$
>  <MOLECULE>
COc1ccc(C(CN2CCN(c3cc4c(cc3F)c(=O)c(C(=O)O)cn4-c3ccc([N+](=O)[O-])cc3F)CC2)=NO)cc1 [Exp. 8]

>  <CLASS>
high class

$$$$
>  <MOLECULE>
CC1COc2c(N3CCN(C)CC3)c(F)cc3c(=O)c(C(=O)O)cn1c23 (centres unmarked) [Ofloxacin, reference compound]

>  <CLASS>
low class

$$$$
>  <MOLECULE>
CCn1cc(C(=O)O)c(=O)c2cc(F)c(N3CCNCC3)cc21 [Norfloxacin, reference compound]

>  <CLASS>
middle class

$$$$
>  <MOLECULE>
CCn1cc(C(=O)O)c(=O)c2cc(F)c(N3CCN(CC(=NO)c4ccccc4)CC3)cc21 [Exp. 3]

>  <CLASS>
middle class

$$$$
>  <MOLECULE>
CCn1cc(C(=O)O)c(=O)c2cc(F)c(N3CCN(CC(C)NN)CC3)cc21 (centres unmarked) [Exp. 1]

>  <CLASS>
high class

$$$$
>  <MOLECULE>
COc1ccc(C(=O)CN2CCN(c3cc4c(cc3F)c(=O)c(C(=O)O)cn4-c3ccc(N)cc3F)CC2)cc1 [Exp. 12]

>  <CLASS>
middle class

$$$$

Here's the next entry for you.
Query string: Categorize the following entry: CCn1cc(C(=O)O)c(=O)c2cc(F)c(N3CCN(CC(=NO)c4ccc(OC)cc4)CC3)cc21 [Exp. 5]
Result string: high class
